Reference source: ChEMBL document CHEMBL3779772

What follows is a record of log10 of IC50 for Human immunodeficiency virus type 1 reverse transcriptase (Human immunodeficiency virus 1).
Response schema: value (number) is log10 of IC50 in units of µM.

Please review the following examples before continuing.
INSERT INTO measurements (smiles_repr, system_tested, test_result) VALUES
  ('C[C@H]1C(=O)N2C[C@@H](O)[C@@H](O)[C@@H]2[C@@H]2Sc3ccccc3C(=O)N12', 'Human immunodeficiency virus type 1 reverse transcriptase (Human immunodeficiency virus 1)', 0.98),
  ('O=C1CN2C(=O)c3ccccc3S[C@@H]2[C@H]2[C@H](O)[C@H](O)CN12', 'Human immunodeficiency virus type 1 reverse transcriptase (Human immunodeficiency virus 1)', -0.09);

[in] Request body: readout log10 of IC50, system Human immunodeficiency virus type 1 reverse transcriptase (Human immunodeficiency virus 1), query O=C1CN2C(=O)c3ccccc3S[C@H]2[C@H]2[C@H](O)[C@H](O)CN12 . Return the value.
[out] 0.91

[in] Same for C[C@H]1C(=O)N2C[C@@H](O)[C@@H](O)[C@@H]2[C@H]2Sc3ccccc3C(=O)N21
[out] 0.62

[in] Then what about the molecule C[C@@H]1C(=O)N2C[C@@H](O)[C@@H](O)[C@@H]2[C@@H]2Sc3ccccc3C(=O)N12 ?
[out] 0.30
